assay.summary: Effective concentration in a chemotaxis assay
Assay type: functional
measurement.kind: EC50 (µM)
Answers are plain numbers, in µM.

Reported EC50, molecule `Cc1csc(C(=O)NNC(=O)CN2CCCN(Cc3ccc(Cl)cc3)CC2)c1` : ____
9.5

* * *

system: C-C chemokine receptor type 2 (Homo sapiens, UniProt P41597)
assay.summary: Percent inhibition of [125I]MCP-1 (Monocyte Chemoattractant Protein-1) binding to THP-1 cells at 100 uM
Assay type: cell-based
Sequence (P41597 whole entry, looked up): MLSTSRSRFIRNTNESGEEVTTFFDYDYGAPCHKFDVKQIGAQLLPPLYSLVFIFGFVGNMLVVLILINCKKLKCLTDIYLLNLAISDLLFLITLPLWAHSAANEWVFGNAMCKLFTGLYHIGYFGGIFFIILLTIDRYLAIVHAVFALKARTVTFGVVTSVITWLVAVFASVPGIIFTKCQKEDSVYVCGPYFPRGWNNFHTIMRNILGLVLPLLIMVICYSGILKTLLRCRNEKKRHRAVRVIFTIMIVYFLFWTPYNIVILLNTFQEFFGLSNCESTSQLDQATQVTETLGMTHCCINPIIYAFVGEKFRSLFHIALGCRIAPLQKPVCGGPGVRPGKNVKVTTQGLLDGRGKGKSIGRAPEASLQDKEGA
Provide the recorded inhibition for the entries that follow.
One number for each entry, in %.

>>> df
                                   compound  reported_measurement
0  CS(=O)(=O)c1ccc(CN2CCCN(CCC(O)(c3ccccc3)c3cccc(O)c3)CC2)cc1 (stereo not drawn)                   105
1  CS(=O)(=O)c1ccc(CN2CCCN(CCC(O)(c3cccc(O)c3)c3cccc(F)c3)CC2)cc1 (stereo not drawn)                   104
2  COc1cccc(C(O)(CCN2CCCN(Cc3ccc(S(C)(=O)=O)cc3)CC2)c2cccc(OC)c2)c1                    38
3  CS(=O)(=O)c1ccc(CN2CCCN(CCC(O)(c3cccc(F)c3)c3cccc(F)c3)CC2)cc1                    75
4  CS(=O)(=O)c1ccc(CN2CCCN(CCC(O)(c3ccccc3)c3ccccc3)CC2)cc1                   104
5  CS(=O)(=O)c1ccc(CN2CCCN(CCC(O)(c3cccc(O)c3)c3cccc(Cl)c3)CC2)cc1 (stereo not drawn)                    99

Please give inhibition for each item listed below.
1. CS(=O)(=O)c1ccc(CN2CCCN(CCC(O)(c3ccccc3)c3cccc(F)c3)CC2)cc1 (stereo not drawn)
2. COc1ccccc1C(O)(CCN1CCCN(Cc2ccc(S(C)(=O)=O)cc2)CC1)c1ccccc1OC
3. CS(=O)(=O)c1ccc(CN2CCCN(CCC(O)(c3ccc(C(F)(F)F)cc3)c3ccc(C(F)(F)F)cc3)CC2)cc1
4. CS(=O)(=O)c1ccc(CN2CCCN(CCC(O)(c3cccc(Cl)c3)c3cccc(Cl)c3)CC2)cc1
5. CS(=O)(=O)c1ccc(CN2CCCN(CCC(O)(c3ccc(-c4ccccc4)cc3)c3ccc(-c4ccccc4)cc3)CC2)cc1
6. Cc1ccccc1C(O)(CCN1CCCN(Cc2ccc(S(C)(=O)=O)cc2)CC1)c1ccccc1C
7. CS(=O)(=O)c1ccc(CN2CCCN(CCC(O)(c3ccccc3)c3cccc(N)c3)CC2)cc1 (stereo not drawn)

1. 95
2. 14
3. 38
4. 28
5. 0
6. 0
7. 102

* * *

system: C-C chemokine receptor type 2 (Homo sapiens)
assay.summary: Concentration required to inhibit [125I]MCP-1 (Monocyte Chemoattractant Protein-1) binding to THP-1 cell
Assay type: cell-based
Sequence (P41597 whole entry): as the sequence (P41597 whole entry, looked up) above
measurement.kind: IC50 (µM)
Numbers only, in µM.

Reference set (2 entries):
>>> df
                                   compound  measurement_kind  quantity_unit  reported_measurement
0  CS(=O)(=O)c1ccc(CN2CCCN(CCC(O)(c3cccc(O)c3)c3cccc(Cl)c3)CC2)cc1 (stereo not drawn)              IC50             µM                   4.5
1  CS(=O)(=O)c1ccc(CN2CCCN(CCC(O)(c3ccccc3)c3cccc(O)c3)CC2)cc1 (stereo not drawn)              IC50             µM                  0.71

Consider now this further compound.
Report IC50 for CNc1cccc(C(O)(CCN2CCCN(Cc3ccc(S(C)(=O)=O)cc3)CC2)c2ccccc2)c1 (stereo not drawn) tested on C-C chemokine receptor type 2 (Homo sapiens).
5

Source: ChEMBL document CHEMBL1138003
